System: ATP;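 also: ATP exposure 15 min at 22 °C before imaging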
test_description: switch fluorescence ratio, 500 uM ATP over buffer (Cy3 cluster intensity, sum of 5 cycles each) (fold (ratio)); higher = stronger signal-on switching upon ATP binding; sequences stand for … in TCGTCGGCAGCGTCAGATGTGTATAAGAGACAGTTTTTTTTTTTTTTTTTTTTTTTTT…TC
applied_conditions: aptamer strand: ATP DNA aptamer (quencher-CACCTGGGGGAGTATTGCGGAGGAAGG + anchor), 100 nM annealed; ATP concentration: 500 uM
value_kind: switch fluorescence ratio
Note: the reply should be a number with no unit written.

Ask | Note down switch fluorescence ratio recorded for "TTTAAGTGCG"
Reply | 1.05

Ask | Note down switch fluorescence ratio recorded for "TGTTAGGTAG"
Reply | 1.01

Ask | Note down switch fluorescence ratio recorded for "GGGGAATTTG"
Reply | 1.01

Ask | Note down switch fluorescence ratio recorded for "CTTCACACGT"
Reply | 1.02

Ask | Note down switch fluorescence ratio recorded for "ACGCCGGGCT"
Reply | 1.07

Ask | Note down switch fluorescence ratio recorded for "GACAGGTGGG"
Reply | 1.07

Ask | Note down switch fluorescence ratio recorded for "GCATATCTGT"
Reply | 1.03

Ask | Note down switch fluorescence ratio recorded for "TTAACCGATA"
Reply | 1.04

Ask | Note down switch fluorescence ratio recorded for "GGGACGGTAG"
Reply | 1.04

Ask | Note down switch fluorescence ratio recorded for "GCAGAAGTAC"
Reply | 2.37

Ask | Note down switch fluorescence ratio recorded for "TACGAGCTGA"
Reply | 1.03

Ask | Note down switch fluorescence ratio recorded for "TTTGGCGGCG"
Reply | 0.993

Ask | Note down switch fluorescence ratio recorded for "GTGGTAGGGT"
Reply | 1.02

Ask | Note down switch fluorescence ratio recorded for "GCTTTTCGAT"
Reply | 0.994

Ask | Note down switch fluorescence ratio recorded for "TAAGCAGTTA"
Reply | 1.08

Ask | Note down switch fluorescence ratio recorded for "TTCAGGTTAG"
Reply | 1.01

Ask | Note down switch fluorescence ratio recorded for "GGAGGCACTG"
Reply | 1

Ask | Note down switch fluorescence ratio recorded for "GGGTTTACCT"
Reply | 1.05

Ask | Note down switch fluorescence ratio recorded for "GCGGTTGCGT"
Reply | 0.971

Ask | Note down switch fluorescence ratio recorded for "GAGTGAAGGA"
Reply | 1.03

Ask | Note down switch fluorescence ratio recorded for "GTTGTGAATA"
Reply | 0.994

Ask | Note down switch fluorescence ratio recorded for "GGAGGGCGGG"
Reply | 1.02

Ask | Note down switch fluorescence ratio recorded for "TCAAGTTATT"
Reply | 0.973

Ask | Note down switch fluorescence ratio recorded for "TGGTTGTTTT"
Reply | 0.99

Ask | Note down switch fluorescence ratio recorded for "GAGGCACGG"
Reply | 1.05

Ask | Note down switch fluorescence ratio recorded for "TTATCTGGGC"
Reply | 0.976

Ask | Note down switch fluorescence ratio recorded for "CGTGTTTTCC"
Reply | 1.02

Ask | Note down switch fluorescence ratio recorded for "GGCCGGCAAC"
Reply | 1

Ask | Note down switch fluorescence ratio recorded for "AAACGAATGG"
Reply | 0.981

Ask | Note down switch fluorescence ratio recorded for "GGGCGGATGG"
Reply | 0.986

Ask | Note down switch fluorescence ratio recorded for "TTGAAATCGA"
Reply | 1.01

Ask | Note down switch fluorescence ratio recorded for "TATTGAGAGA"
Reply | 1.02

Ask | Note down switch fluorescence ratio recorded for "TAGGATTGGG"
Reply | 0.989

Ask | Note down switch fluorescence ratio recorded for "TAAGTATTCG"
Reply | 0.997

Ask | Note down switch fluorescence ratio recorded for "GGGGCAGGCT"
Reply | 0.886

Ask | Note down switch fluorescence ratio recorded for "ACTAGGGCGT"
Reply | 1

Ask | Note down switch fluorescence ratio recorded for "AAGTTACTAC"
Reply | 1.06

Ask | Note down switch fluorescence ratio recorded for "AAGGTCGCGT"
Reply | 0.991

Ask | Note down switch fluorescence ratio recorded for "TGCGGTGATG"
Reply | 0.985

Ask | Note down switch fluorescence ratio recorded for "ACGGTAACTC"
Reply | 1.27

Ask | Note down switch fluorescence ratio recorded for "GTGTAAGCAG"
Reply | 0.995

Ask | Note down switch fluorescence ratio recorded for "TCGAGATGG"
Reply | 0.973

Ask | Note down switch fluorescence ratio recorded for "TAGCTTTAAC"
Reply | 1.09

Ask | Note down switch fluorescence ratio recorded for "AGAAAAGGAA"
Reply | 1

Ask | Note down switch fluorescence ratio recorded for "CGTGGGATAA"
Reply | 1.01

Ask | Note down switch fluorescence ratio recorded for "TTAAAGCTGT"
Reply | 1.02

Ask | Note down switch fluorescence ratio recorded for "AGTTAATTTC"
Reply | 0.989

Ask | Note down switch fluorescence ratio recorded for "TGGTGCACC"
Reply | 0.983

Ask | Note down switch fluorescence ratio recorded for "TCTGTCCTTC"
Reply | 1.06

Ask | Note down switch fluorescence ratio recorded for "TCTAGAATGG"
Reply | 0.982

Ask | Note down switch fluorescence ratio recorded for "TACGTTTTTT"
Reply | 1.05

Ask | Note down switch fluorescence ratio recorded for "CATTATAGGC"
Reply | 1

Ask | Note down switch fluorescence ratio recorded for "TTCGAAGGCT"
Reply | 0.995

Ask | Note down switch fluorescence ratio recorded for "TGGATGTTAT"
Reply | 1.02

Ask | Note down switch fluorescence ratio recorded for "TATTGGGGGC"
Reply | 1

Ask | Note down switch fluorescence ratio recorded for "ATATGTGATG"
Reply | 0.997

Ask | Note down switch fluorescence ratio recorded for "GAAATATGGC"
Reply | 1.15

Ask | Note down switch fluorescence ratio recorded for "CACGCGTATG"
Reply | 1.03

Ask | Note down switch fluorescence ratio recorded for "TCTTTTGGCG"
Reply | 0.927

Ask | Note down switch fluorescence ratio recorded for "GTCGGGCCAG"
Reply | 0.985

Ask | Note down switch fluorescence ratio recorded for "ATCGGTAACT"
Reply | 1.01

Ask | Note down switch fluorescence ratio recorded for "AAATGCTATA"
Reply | 1.01

Ask | Note down switch fluorescence ratio recorded for "TTGCCTGTG"
Reply | 1.03

Ask | Note down switch fluorescence ratio recorded for "AAATGCTTTA"
Reply | 1.03

Ask | Note down switch fluorescence ratio recorded for "GCTTCTATTG"
Reply | 1

Ask | Note down switch fluorescence ratio recorded for "GGGGGGGATC"
Reply | 1.02

Ask | Note down switch fluorescence ratio recorded for "TTGCCGCAGC"
Reply | 1.49

Ask | Note down switch fluorescence ratio recorded for "TTTTCCAGGG"
Reply | 1.22

Ask | Note down switch fluorescence ratio recorded for "GATGTCAGGG"
Reply | 1.05

Ask | Note down switch fluorescence ratio recorded for "GAAGATTTCT"
Reply | 0.976

Ask | Note down switch fluorescence ratio recorded for "GCGCTTTTGC"
Reply | 1.04

Ask | Note down switch fluorescence ratio recorded for "TTTGCCTGTA"
Reply | 0.992

Ask | Note down switch fluorescence ratio recorded for "CGGTGGGATT"
Reply | 0.979

Ask | Note down switch fluorescence ratio recorded for "CATTACCGAG"
Reply | 1.05

Ask | Note down switch fluorescence ratio recorded for "GCATGAGGAT"
Reply | 1.01

Ask | Note down switch fluorescence ratio recorded for "TGAATTTTAC"
Reply | 1.03

Ask | Note down switch fluorescence ratio recorded for "TTATAGATAG"
Reply | 0.999

Ask | Note down switch fluorescence ratio recorded for "AGAATTAAG"
Reply | 0.96

Ask | Note down switch fluorescence ratio recorded for "GGGCGGCTGT"
Reply | 1

---

System: ATP;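 also: ATP exposure 15 min at 22 °C before imaging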
test_description: switch fluorescence ratio, 500 uM ATP over buffer (Cy3 cluster intensity, sum of 5 cycles each) (fold (ratio)); higher = stronger signal-on switching upon ATP binding; sequences stand for … in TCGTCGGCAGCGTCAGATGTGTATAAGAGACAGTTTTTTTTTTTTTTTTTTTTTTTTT…TC
applied_conditions: aptamer strand: ATP DNA aptamer (quencher-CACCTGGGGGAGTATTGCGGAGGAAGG + anchor), 100 nM annealed; ATP concentration: 500 uM
Assignment: determine reported switch fluorescence ratio for the given sequences.
Note: the reply should be a number with no unit written.

Ask | Give switch fluorescence ratio only, for "ATTATTCGGT" , using ATP data.
Reply | 0.986

Ask | Give switch fluorescence ratio only, for "GGTAAAGGGG" , using ATP data.
Reply | 0.991

Ask | Give switch fluorescence ratio only, for "GACTTAGTGT" , using ATP data.
Reply | 1.01

Ask | Give switch fluorescence ratio only, for "TCAGGGGATT" , using ATP data.
Reply | 1.02

Ask | Give switch fluorescence ratio only, for "AAGGACCTCC" , using ATP data.
Reply | 1.23

Ask | Give switch fluorescence ratio only, for "GGCTGAAAGT" , using ATP data.
Reply | 0.991

Ask | Give switch fluorescence ratio only, for "CTCGCTCGTT" , using ATP data.
Reply | 1.03

Ask | Give switch fluorescence ratio only, for "AGACAGCGAG" , using ATP data.
Reply | 1.02

Ask | Give switch fluorescence ratio only, for "TGTAGGGGTT" , using ATP data.
Reply | 1

Ask | Give switch fluorescence ratio only, for "TGCGGAATAT" , using ATP data.
Reply | 1.14
